These data points were gathered from ChEMBL document CHEMBL5154800.

Assign inhibition of growth at 0.2 µM to each entry below.
Test system: HCT-116
test_summary: Antiproliferative activity against human HCT-116 cells assessed as growth inhibition at 0.2 uM measured after 72 hrs by MTT assay
Format: functional
study_conditions: read-out: GI
Return type: number; implicit unit %.

Measured inhibition of growth at 0.2 µM of CC(C)(C)NC(=O)CC[C@H](NC(=O)CCNC(=O)CCl)C(=O)N[C@@H](Cc1ccccc1)C(=O)NCc1ccc2ccccc2c1 : 39

Measured inhibition of growth at 0.2 µM of Cc1ccc(CNC(=O)[C@H](Cc2ccccc2)NC(=O)[C@H](CCC(=O)NC(C)(C)C)NC(=O)[C@H](CNC(=O)CCl)NC(=O)OC(C)(C)C)cc1 : 46

Measured inhibition of growth at 0.2 µM of Cc1ccc(CNC(=O)[C@H](Cc2ccccc2)NC(=O)[C@H](CCC(=O)NC(C)(C)C)NC(=O)CCNC(=O)/C(C#N)=C/C2CC2)cc1 : 26

Measured inhibition of growth at 0.2 µM of Cc1ccc(CNC(=O)[C@H](Cc2ccccc2)NC(=O)[C@H](CCC(=O)NC(C)(C)C)NC(=O)[C@H](CNC(=O)CCl)NC(=O)C(=O)c2c[nH]c3ccccc23)cc1 : 44
